# Assay text: Oral bioavailability in mouse at 10 mg/kg
# Type: ADME, organism-based
# Run conditions: in vivo
Parameter measured: bioavailability

In plain terms, `CC[C@@H](NC(=O)c1ccc(OC)nc1)[C@H]1CC[C@@H](c2ccnc(OC)c2C(F)F)CC1` has a documented bioavailability of 33%

###

# Assay text: AUC in mouse at 1 mg/kg, iv
# Format: ADME, organism-based
# Design: dose 1 mg/kg
# Run conditions: in vivo
Parameter measured: AUC (µM·h)
Express it in µM·h; write the number only.

In plain terms, `CC[C@@H](NC(=O)c1ccc(OC)nc1)[C@H]1CC[C@@H](c2ccnc(OC)c2C(F)F)CC1` has a documented AUC of 1.2

meta.source: ChEMBL document CHEMBL4823289
